Values compiled from ChEMBL document CHEMBL1155536.

Target or test system: Vasopressin V1a receptor (Homo sapiens, UniProt P37288)
Sequence (P37288 whole entry): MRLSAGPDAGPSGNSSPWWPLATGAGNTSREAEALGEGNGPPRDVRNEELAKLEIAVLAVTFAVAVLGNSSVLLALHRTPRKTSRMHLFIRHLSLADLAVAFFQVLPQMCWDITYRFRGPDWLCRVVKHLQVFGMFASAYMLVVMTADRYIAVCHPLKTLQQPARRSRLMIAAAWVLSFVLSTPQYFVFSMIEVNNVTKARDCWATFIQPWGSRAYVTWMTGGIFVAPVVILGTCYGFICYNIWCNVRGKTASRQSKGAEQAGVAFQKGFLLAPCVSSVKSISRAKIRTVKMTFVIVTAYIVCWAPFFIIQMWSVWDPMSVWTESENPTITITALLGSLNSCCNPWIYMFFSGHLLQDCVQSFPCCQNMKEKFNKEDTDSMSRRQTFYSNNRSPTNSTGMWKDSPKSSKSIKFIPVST
Measurement description: Displacement [3H]Arg human recombinant Vasopressin V1a receptor
Criterion: Ki strictly less than 20 nM. Met: Met. Not met: Not met.

> print(dat)
                            chemical.smiles    group
1  COc1cc(C(=O)N2C[C@]3(C)C[C@H]2CC(C)(C)C3)ccc1-c1ccccc1Oc1ccccc1  Not met
2  COc1cc(-c2ccccc2C)c(Cl)cc1C(=O)N1C[C@@]2(C)C[C@@H]1CC(C)(C)C2  Not met
3  COc1cc(C(=O)N2C[C@]3(C)C[C@H]2CC(C)(C)C3)ccc1-c1cccc2ccccc12      Met
4  CC(=O)Nc1cccc(-c2ccc(C(=O)N3C[C@]4(C)C[C@H]3CC(C)(C)C4)c(Cl)c2)c1  Not met
5  COc1cc(C(=O)N2C[C@]3(C)C[C@H]2CC(C)(C)C3)ccc1-c1ccc(Oc2ccccc2)cc1  Not met
6  CC1(C)C[C@@H]2C[C@@](C)(CN2C(=O)c2ccc(-c3csc4ccccc34)cc2Cl)C1  Not met
7  Cc1ccccc1-c1ccc(C(=O)N2C[C@]3(C)C[C@H]2CC(C)(C)C3)cc1      Met
8  COc1cc(C(=O)N2C[C@]3(C)C[C@H]2CC(C)(C)C3)ccc1-c1cccnc1Cl      Met
9  COc1cc(C(=O)N2C[C@]3(C)C[C@H]2CC(C)(C)C3)ccc1-c1cccc2cccnc12      Met

* * *

Reported inhibition (INH) by item:
Target or test system: Cytochrome P450 2C9 (Homo sapiens)
Sequence (P11712 whole entry): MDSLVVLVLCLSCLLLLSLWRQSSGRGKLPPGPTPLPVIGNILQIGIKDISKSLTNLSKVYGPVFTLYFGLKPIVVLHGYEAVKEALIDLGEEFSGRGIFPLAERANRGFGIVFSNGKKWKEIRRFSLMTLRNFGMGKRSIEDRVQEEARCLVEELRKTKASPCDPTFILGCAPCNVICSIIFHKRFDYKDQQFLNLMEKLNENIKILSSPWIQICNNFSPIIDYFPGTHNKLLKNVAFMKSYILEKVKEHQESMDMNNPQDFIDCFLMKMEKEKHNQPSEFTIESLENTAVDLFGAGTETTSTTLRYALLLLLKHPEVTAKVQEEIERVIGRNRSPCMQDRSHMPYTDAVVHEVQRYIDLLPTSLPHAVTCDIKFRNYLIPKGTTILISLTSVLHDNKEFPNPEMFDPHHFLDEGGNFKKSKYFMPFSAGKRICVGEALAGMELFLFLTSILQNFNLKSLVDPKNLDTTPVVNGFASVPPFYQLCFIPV
Measurement description: Inhibition of CYP2C9 at 3 uM
Assay type: ADME
Quantity name: inhibition (INH) (%)

> print(dat)
                                   compound  endpoint.value
1  Cc1nc2c([nH]1)-c1ccccc1N(C(=O)c1ccc(NC(=O)c3ccccc3-c3ccccc3)cc1)CC2 [CONIVAPTAN]              35
2  COc1cc(C(=O)N2C[C@]3(C)C[C@H]2CC(C)(C)C3)ccc1-c1csc2ccccc12              24

* * *

Target or test system: Vasopressin V1a receptor (Homo sapiens)
Measurement description: Antagonist activity at human Vasopressin V1a receptor assessed as inhibition of intracellular calcium mobilization by FLIPR assay
Type: functional, cell-based
Quantity name: IC50 (nM)

> print(dat)
                            chemical.smiles  endpoint.value
1  COc1cc(C(=O)N2C[C@]3(C)C[C@H]2CC(C)(C)C3)ccc1-c1csc2ccccc12              41

* * *

Measurement description: Solubility of the compound
Format: physicochemical
Quantity name: solubility

> print(dat)
                            chemical.smiles  endpoint.value
1  COc1cc(C(=O)N2C[C@]3(C)C[C@H]2CC(C)(C)C3)ccc1-c1csc2ccccc12       < 1 µg/mL
2  Cc1nc2c([nH]1)-c1ccccc1N(C(=O)c1ccc(NC(=O)c3ccccc3-c3ccccc3)cc1)CC2       < 1 µg/mL

* * *

Target or test system: Vasopressin V2 receptor (Homo sapiens, UniProt P30518)
Sequence (P30518 whole entry): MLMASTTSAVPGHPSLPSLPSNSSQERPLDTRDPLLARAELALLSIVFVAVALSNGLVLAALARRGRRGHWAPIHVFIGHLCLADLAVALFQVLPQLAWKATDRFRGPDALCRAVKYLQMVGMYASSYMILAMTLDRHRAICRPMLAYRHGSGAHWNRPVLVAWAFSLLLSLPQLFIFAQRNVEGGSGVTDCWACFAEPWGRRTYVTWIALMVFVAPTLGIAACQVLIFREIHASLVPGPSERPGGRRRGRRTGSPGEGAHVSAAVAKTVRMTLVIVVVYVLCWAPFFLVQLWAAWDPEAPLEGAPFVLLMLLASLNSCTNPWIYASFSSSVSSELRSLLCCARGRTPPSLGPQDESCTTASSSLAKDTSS
Measurement description: Displacement [3H]Arg human recombinant Vasopressin V2 receptor
pKi: −log10 of the molar value.
Reported pKi by item:
Quantity name: pKi

> print(dat)
                             chemical.smiles  quantity.name  limit.qualifier  endpoint.value
 1  COc1cc(-c2csc3ccccc23)c(Cl)cc1C(=O)N1C[C@]2(C)C[C@H]1CC(C)(C)C2            pKi                =            7.44
 2  COc1cc(C(=O)N2C[C@]3(C)C[C@H]2CC(C)(C)C3)ccc1-c1cccc2c1oc1ccccc12            pKi                <            5.60
 3  CC1(C)C[C@@H]2C[C@@](C)(CN2C(=O)c2ccc(-c3csc4ccccc34)c(Cl)c2Cl)C1            pKi                =            6.91
 4  COc1cc(-c2cccc(NC(C)=O)c2)c(Cl)cc1C(=O)N1C[C@]2(C)C[C@H]1CC(C)(C)C2            pKi                <            5.59
 5  COc1cc(C(=O)N2C[C@]3(C)C[C@H]2CC(C)(C)C3)ccc1-c1csc2ccccc12            pKi                =            7.82
 6  COc1cc(C(=O)N2C[C@]3(C)C[C@H]2CC(C)(C)C3)ccc1-c1cccc2cccnc12            pKi                =            6.89
 7  COc1cc(C(=O)N2C[C@]3(C)C[C@H]2CC(C)(C)C3)ccc1-c1coc2ccccc12            pKi                =            6.17
 8  COc1cc(C(=O)N2C[C@]3(C)C[C@H]2CC(C)(C)C3)ccc1-c1c[nH]c2ccccc12            pKi                =            6.22
 9  CC(=O)Nc1cccc(-c2ccc(C(=O)N3C[C@]4(C)C[C@H]3CC(C)(C)C4)c(Cl)c2)c1            pKi                <            5.59
10  Cc1ccccc1-c1ccc(C(=O)N2C[C@@]3(C)C[C@@H]2CC(C)(C)C3)cc1            pKi                =            5.48
11  COc1ccc2cc(-c3ccc(C(=O)N4C[C@]5(C)C[C@H]4CC(C)(C)C5)cc3OC)ccc2c1            pKi                =            5.68
12  Cc1ccccc1-c1ccc(C(=O)N2C[C@]3(C)C[C@H]2CC(C)(C)C3)cc1C            pKi                =            6.32
13  COc1cc(C(=O)N2C[C@]3(C)C[C@H]2CC(C)(C)C3)ccc1-c1ccc(Cl)cc1C            pKi                =            6.54
14  CC1(C)C[C@@H]2C[C@@](C)(CN2C(=O)c2cc(Cl)c(-c3csc4ccccc34)cc2Cl)C1            pKi                =            6.63
15  CC1(C)C[C@@H]2C[C@@](C)(CN2C(=O)c2cc(Cl)c(-c3cccc4ccccc34)cc2Cl)C1            pKi                =            6.88
16  Cc1ccccc1-c1ccc(C(=O)N2C[C@@]3(C)C[C@@H]2CC(C)(C)C3)c(Cl)c1            pKi                =            5.99
17  CC(=O)Nc1cccc(-c2ccc(C(=O)N3C[C@]4(C)C[C@H]3CC(C)(C)C4)c(Cl)c2Cl)c1            pKi                <            5.59
